# Experiment Notes: Selectivity index, ratio of IC50 for African green monkey Vero cells to IC50 for Plasmodium falciparum
# Type: toxicity, cell-based
# Measurement Parameters: read-out: Ratio IC50
Field 'label' (enum: yes / no). Set to yes when selectivity ratio is strictly under 400; else no.

Illustrative cases are given below, each with its answer.
Query :: Record CN1CCN(c2nc(Nc3ccc(Nc4ccnc5cc(Cl)ccc45)cc3)nc(Nc3cccc(Cl)c3)n2)CC1 : is its selectivity ratio strictly below 400?
Result :: yes

Query :: Quick check: selectivity ratio of CN1CCN(c2nc(Nc3ccc(Nc4ccnc5cc(Cl)ccc45)cc3)nc(N3CCc4ccccc4C3)n2)CC1 under 400?
Result :: yes

Query :: # check: selectivity ratio < 400 for Clc1ccc(Nc2nc(NCCCN3CCOCC3)nc(Nc3ccc(Nc4ccnc5cc(Cl)ccc45)cc3)n2)cc1
Result :: no

Query :: Criterion: selectivity ratio strictly below 400. Is it met by Clc1ccc2c(Nc3ccc(Nc4nc(NCCCN5CCOCC5)nc(N5CCc6ccccc6C5)n4)cc3)ccnc2c1 ?
Result :: no

Further cases:
Query :: In plain terms, does CCN1CCN(c2nc(Nc3ccc(Nc4ccnc5cc(Cl)ccc45)cc3)nc(Nc3cccc(Cl)c3)n2)CC1 come in under 400 for selectivity ratio?
Result :: yes

Query :: I wonder whether CCN1CCN(c2nc(Nc3ccc(Nc4ccnc5cc(Cl)ccc45)cc3)nc(N3CCOCC3)n2)CC1 has selectivity ratio below 400. Can you tell?
Result :: no

----------
# Experiment Notes: Selectivity index, ratio of IC50 for African green monkey Vero cells to IC50 for Plasmodium falciparum
# Format: toxicity, cell-based
# Measurement Parameters: read-out: Ratio IC50
Decide using selectivity ratio: a value greater than or equal to 80 is Fulfilled, a smaller one is Not fulfilled.

Query :: Check if selectivity ratio >= 80 (inclusive). Item: CN1CCN(c2nc(Nc3ccc(Cl)cc3)nc(Nc3ccc(Nc4ccnc5cc(Cl)ccc45)cc3)n2)CC1
Result :: Not fulfilled

Query :: Record CN1CCN(c2nc(Nc3ccc(F)cc3)nc(Nc3ccc(Nc4ccnc5cc(Cl)ccc45)cc3)n2)CC1 ; criterion: selectivity ratio no lower than 80. Met?
Result :: Fulfilled

Query :: Dear colleague, could you confirm whether Fc1cccc(Nc2nc(NCCN3CCOCC3)nc(Nc3ccc(Nc4ccnc5cc(Cl)ccc45)cc3)n2)c1 has selectivity ratio at or above 80?
Result :: Fulfilled

Query :: Determine whether this compound has selectivity ratio no lower than 80: Fc1cccc(Nc2nc(Nc3ccc(Nc4ccnc5cc(Cl)ccc45)cc3)nc(N3CCCCC3)n2)c1
Result :: Not fulfilled

Next:
Query :: Does the reported selectivity ratio for Clc1ccc2c(Nc3ccc(Nc4nc(NCCCN5CCOCC5)nc(N5CCCc6ccccc65)n4)cc3)ccnc2c1 fall at or above the 80 mark?
Result :: Fulfilled

Query :: Please indicate if the recorded selectivity ratio for CN1CCN(c2nc(Nc3ccc(Nc4ccnc5cc(Cl)ccc45)cc3)nc(Nc3cccc(F)c3)n2)CC1 meets or exceeds 80.
Result :: Not fulfilled

Query :: Determine whether this compound has selectivity ratio no lower than 80: CN1CCN(c2nc(Nc3ccc(Nc4ccnc5cc(Cl)ccc45)cc3)nc(N3CCOCC3)n2)CC1
Result :: Fulfilled

Query :: Confirm if selectivity ratio reported for the compound COc1ccc(Nc2nc(NCCCN3CCOCC3)nc(Nc3ccc(Nc4ccnc5cc(Cl)ccc45)cc3)n2)cc1 is 80 or above.
Result :: Fulfilled

----------
# Experiment Notes: Selectivity index, ratio of IC50 for African green monkey Vero cells to IC50 for Plasmodium falciparum
# Assay type: toxicity, cell-based
# Measurement Parameters: read-out: Ratio IC50
selectivity ratio of 200 or higher: yes (1). Under 200: no (0).

Query :: Given CCN1CCN(c2nc(Nc3ccc(Cl)cc3)nc(Nc3ccc(Nc4ccnc5cc(Cl)ccc45)cc3)n2)CC1 , state whether its selectivity ratio is at least 200.
Result :: no (0)

----------
Exercise: for every item that follows, state its recorded selectivity ratio.
# Experiment Notes: Selectivity index, ratio of IC50 for African green monkey Vero cells to IC50 for Plasmodium falciparum
# Type: toxicity, cell-based
# Measurement Parameters: read-out: Ratio IC50
One number for each entry.

Query :: What value of selectivity ratio has been recorded for this entry: CCN1CCN(c2nc(Nc3ccc(Nc4ccnc5cc(Cl)ccc45)cc3)nc(N3CCCc4ccccc43)n2)CC1
Result :: 36

For each of the compounds below, state selectivity ratio.
1. CCN1CCN(c2nc(Nc3ccc(Nc4ccnc5cc(Cl)ccc45)cc3)nc(Nc3cccc(OC)c3)n2)CC1
2. Fc1ccc(Nc2nc(NCCN3CCOCC3)nc(Nc3ccc(Nc4ccnc5cc(Cl)ccc45)cc3)n2)cc1
3. CCN1CCN(c2nc(Nc3ccc(Nc4ccnc5cc(Cl)ccc45)cc3)nc(Nc3ccc(OC)cc3)n2)CC1

Result ::
73
1330
75.1

----------
# Experiment Notes: Selectivity index, ratio of IC50 for African green monkey Vero cells to IC50 for Plasmodium falciparum
# Format: toxicity, cell-based
# Measurement Parameters: read-out: Ratio IC50
Parameter Measured: selectivity ratio
One number for each entry.

Worked cases, answers included:
Query :: Requested read-out: selectivity ratio. Entry: Clc1cccc(Nc2nc(NCCN3CCOCC3)nc(Nc3ccc(Nc4ccnc5cc(Cl)ccc45)cc3)n2)c1
Result :: 101

Query :: Given the compound Clc1ccc2c(Nc3ccc(Nc4nc(NCCN5CCOCC5)nc(N5CCc6ccccc6C5)n4)cc3)ccnc2c1 , what is its reported selectivity ratio?
Result :: 1160

Query :: Reported selectivity ratio, compound Clc1ccc2c(Nc3ccc(Nc4nc(NCCN5CCOCC5)nc(N5CCCc6ccccc65)n4)cc3)ccnc2c1 : ____
Result :: 588

Query :: Quick one: selectivity ratio of Clc1ccc2c(Nc3ccc(Nc4nc(NCCCN5CCOCC5)nc(N5CCOCC5)n4)cc3)ccnc2c1 ?
Result :: 3320

Query :: Which selectivity ratio reading was recorded for the compound Fc1ccc(Nc2nc(NCCCN3CCOCC3)nc(Nc3ccc(Nc4ccnc5cc(Cl)ccc45)cc3)n2)cc1 ?
Result :: 682

Query :: Which selectivity ratio reading was recorded for the compound COc1cccc(Nc2nc(Nc3ccc(Nc4ccnc5cc(Cl)ccc45)cc3)nc(N3CCN(C)CC3)n2)c1 ?
Result :: 117

// batch mode: one selectivity ratio value per listed entry
1. CCN1CCN(c2nc(Nc3ccc(Nc4ccnc5cc(Cl)ccc45)cc3)nc(Nc3cccc(F)c3)n2)CC1
2. COc1ccc(Nc2nc(NCCCN3CCOCC3)nc(Nc3ccc(Nc4ccnc5cc(Cl)ccc45)cc3)n2)cc1OC
3. CCN1CCN(c2nc(Nc3ccc(Nc4ccnc5cc(Cl)ccc45)cc3)nc(N3CCc4ccccc4C3)n2)CC1

Result ::
149
413
75.9

I would be grateful if you could provide selectivity ratio for each of the following entries.
1. Fc1cccc(Nc2nc(NCCCN3CCOCC3)nc(Nc3ccc(Nc4ccnc5cc(Cl)ccc45)cc3)n2)c1
2. CCN1CCN(c2nc(Nc3ccc(Nc4ccnc5cc(Cl)ccc45)cc3)nc(Nc3ccc(OC)c(OC)c3)n2)CC1

Result ::
551
624

----------
# Experiment Notes: Selectivity index, ratio of IC50 for African green monkey Vero cells to IC50 for Plasmodium falciparum
# Format: toxicity, cell-based
# Measurement Parameters: read-out: Ratio IC50
Parameter Measured: selectivity ratio
Give bare numbers.

Examples from the recorded data:
Query :: I am curious: what selectivity ratio value has been reported for Clc1cccc(Nc2nc(NCCCN3CCOCC3)nc(Nc3ccc(Nc4ccnc5cc(Cl)ccc45)cc3)n2)c1 ?
Result :: 180

Query :: Find the recorded selectivity ratio belonging to COc1ccc(Nc2nc(Nc3ccc(Nc4ccnc5cc(Cl)ccc45)cc3)nc(N3CCN(C)CC3)n2)cc1OC and report it.
Result :: 169

Query :: Fill in the blank: the reported selectivity ratio of Fc1ccc(Nc2nc(Nc3ccc(Nc4ccnc5cc(Cl)ccc45)cc3)nc(N3CCCCC3)n2)cc1 is ____.
Result :: 520

Would you mind listing selectivity ratio for each of the following compounds?
1. CN1CCN(c2nc(Nc3ccc(Nc4ccnc5cc(Cl)ccc45)cc3)nc(N3CCCc4ccccc43)n2)CC1
2. COc1cccc(Nc2nc(NCCCN3CCOCC3)nc(Nc3ccc(Nc4ccnc5cc(Cl)ccc45)cc3)n2)c1
3. Clc1ccc2c(Nc3ccc(Nc4nc(NCCN5CCOCC5)nc(N5CCOCC5)n4)cc3)ccnc2c1
4. CCN1CCN(c2nc(Nc3ccc(F)cc3)nc(Nc3ccc(Nc4ccnc5cc(Cl)ccc45)cc3)n2)CC1

Result ::
[74.4, 2500, 41.6, 88.2]

// provenance: ChEMBL document CHEMBL3217722
